# targetEntity: T1, Ang2 immobilized on a biosensor (Octet off-rate screening) (Homo sapiens (Human), UniProt O15123 19-496)
# T1 construct: also called Ang2 antigen; not shown: It is a His tag if hAng2-his (R&D 623-AN/CF) was used, or an Fc if hAng2-Fc (PharmAbcine) was used
# T1 sequence: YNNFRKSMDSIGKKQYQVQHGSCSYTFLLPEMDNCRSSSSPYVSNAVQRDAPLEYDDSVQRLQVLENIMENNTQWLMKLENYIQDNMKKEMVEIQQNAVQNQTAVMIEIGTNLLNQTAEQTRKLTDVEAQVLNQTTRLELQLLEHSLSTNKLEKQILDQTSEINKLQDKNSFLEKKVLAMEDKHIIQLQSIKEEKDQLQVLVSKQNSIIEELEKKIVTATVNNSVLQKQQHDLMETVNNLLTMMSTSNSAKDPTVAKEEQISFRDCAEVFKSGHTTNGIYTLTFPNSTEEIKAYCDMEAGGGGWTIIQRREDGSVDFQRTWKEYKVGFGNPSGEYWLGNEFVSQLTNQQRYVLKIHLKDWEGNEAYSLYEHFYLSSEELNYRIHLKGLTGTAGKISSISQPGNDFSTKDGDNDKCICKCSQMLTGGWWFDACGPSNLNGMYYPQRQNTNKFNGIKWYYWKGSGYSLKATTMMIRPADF
# experiment: Octet (BLI), Ang2 immobilized on biosensor, scFv in solution
endpoint: koff

Take a look at these entries with their results.
No. 46 candidate antibody expressed in the form of scFv (scFv, V domains shown) VH: QVQLVESGGGLVQPGRSLRLSCAASGFTFDDCAMHWVRQAPGKGLEWVSGISGNSKNVAYADSVKGRFSISRDDAKNSLYLQMNSLRAEDTAVYYCARDPAYSQFDYWGQGTLITVSS VL: QSALTQPPSLSATPGQRVTISCSGSSSNVGGYPVNWYQQVPGAAPKLLMYTDYKRPSGVPDRFFGSKSGTSASLAISGLQSEDEADYYCATWDDNLNGYVFGTGTKVTVLG    6.14e-05 s⁻¹
No. 41 candidate antibody expressed in the form of scFv (scFv, V domains shown) VH: QVQLVESGGGLVQPGGSLRLSCEASGFAFGRYEMNWVRQAPGKGLEWIAYIDTGGGAKVYADSVKGRFTISRDDSKNSLYLQMNSLRAEDTAVYYCTTEGLMNGLHFDMWGQGTMITVSS VL: DIQMTQSPSTLSASVGDRVAITCRASQAISTWLAWYQQKPGKAPKLLIYTASTLESGVPSRFSGSGSGTDFTLTINSLQPDDFATYYCQQLNSYPYTFGGGTKVEIKR    1.08e-05 s⁻¹

Now examine the next entry.
Query: Tell me measured koff for No. 8 candidate antibody expressed in the form of scFv (scFv) QVQLVESGGGLVKPGGSLRLSCAASGFTFSSYSMNWVRQAPGKGLEWVSSISASDGATYYADSVRGRFTISRDNSRSTLYLQMNSLRAEDTAVYYCAKILAGYSGPMGGMDVWGQGTTVTVSSDIQMTQSPSSLSASVGDRVTITCRASRDISNYLAWYQQKPGKAPKSLIYGASNLQSGVSSQFSGSGSGTDFTLTINSLQPEDSATYYCQQYYSYPLTFGGGTKVDIKR please.
Response: < 1e-07 s⁻¹
